Give measured pIC50 for each item. Keep answers brief.
ASSAY_SYSTEM: Recombinant STAT6 protein (STAT6(W123-T658)) (Homo sapiens)
Construct: Recombinant STAT6 protein (STAT6(W123-T658))
TEST_NAME: STAT6 Fluorescence Polarization (FP) Assay
COND: STAT6(W123-T658) 250 nM, probe 5-FAM-ApYKPFQDLI-NH2 2 nM, 45-minute incubation
pIC50: −log10 of the molar value.

Example entries begin here.
MOLECULE	pIC50
O=C(N[C@H]1CN(c2ccccn2)C[C@H]2CC[C@@H](C(=O)N3CCOCC3)N2C1=O)c1ccc2ccc(C(F)P(=O)(O)O)cc2c1 (stereo partly drawn)	< 4.52
COCCOc1ccc(N(C)C(=O)[C@@H]2CC[C@@H]3CCN(C(C)=O)C[C@H](NC(=O)c4cc5cc(C(F)(F)P(=O)(O)O)ccc5[nH]4)C(=O)N32)cc1	5.52 to 6.52

I'd like to know its pIC50. The molecule in question is CC(=O)N1CC[C@H]2CC[C@@H](C(=O)N3CCN(Cc4ccccc4)C(C#N)C3)N2C(=O)[C@@H](NC(=O)c2cc3cc(C(F)(F)P(=O)(O)O)ccc3s2)C1 (stereo partly drawn)
5.52 to 6.52

====

ASSAY_SYSTEM: Recombinant STAT3 protein (STAT3(G127-I722)) (Homo sapiens)
Construct: Recombinant STAT3 protein (STAT3(G127-I722))
Sequence (P40763 127-722): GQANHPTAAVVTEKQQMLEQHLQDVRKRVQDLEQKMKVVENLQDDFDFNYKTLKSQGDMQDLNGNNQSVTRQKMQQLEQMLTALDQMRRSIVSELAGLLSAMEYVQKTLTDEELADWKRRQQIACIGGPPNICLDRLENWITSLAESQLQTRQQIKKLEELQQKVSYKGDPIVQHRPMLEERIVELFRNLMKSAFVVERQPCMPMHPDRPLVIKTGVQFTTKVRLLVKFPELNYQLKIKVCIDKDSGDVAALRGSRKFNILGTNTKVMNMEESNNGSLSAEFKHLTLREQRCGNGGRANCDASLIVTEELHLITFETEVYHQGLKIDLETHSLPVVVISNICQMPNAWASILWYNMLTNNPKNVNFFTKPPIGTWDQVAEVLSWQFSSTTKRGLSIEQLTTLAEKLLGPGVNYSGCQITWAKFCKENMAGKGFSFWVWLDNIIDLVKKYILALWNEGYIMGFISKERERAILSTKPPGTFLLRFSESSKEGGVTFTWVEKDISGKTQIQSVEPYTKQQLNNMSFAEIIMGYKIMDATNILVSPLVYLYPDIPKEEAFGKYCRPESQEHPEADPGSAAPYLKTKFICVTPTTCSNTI
TEST_NAME: STAT3 Fluorescence Polarization (FP) Assay
COND: STAT3(G127-I722) 25 nM, probe 5-FAM-GpYLPQTV-NH2 2 nM, 45-minute incubation
Kindly supply the reported IC50 values for the records listed here.

Guide cases for IC50, answers given:
COMPOUND	ASSAY_SYSTEM	IC50
CC(=O)N1CC[C@H]2CC[C@@H](C(=O)N[C@H]3CN(S(C)(=O)=O)C[C@@H]3O)N2C(=O)[C@@H](NC(=O)c2cc3cc(C(F)(F)P(=O)(O)O)ccc3s2)C1	Recombinant STAT3 protein (STAT3(G127-I722)) (Homo sapiens)	1 to 10 µM
O=C(N[C@H]1CN(C(=O)c2ncn3ccccc23)CC[C@H]2CC[C@@H](C(=O)N3CCOCC3)N2C1=O)c1ccc2ccc(C(F)P(=O)(O)O)cc2c1 (some centres unmarked)	Recombinant STAT3 protein (STAT3(G127-I722)) (Homo sapiens)	> 10 µM
CC(=O)N1CC[C@H]2CC[C@@H](C(=O)N3CCC[C@H]3Cc3ccccc3)N2C(=O)[C@@H](NC(=O)c2ccc3ccc(C(F)(F)P(=O)(O)O)cc3c2)C1	Recombinant STAT3 protein (STAT3(G127-I722)) (Homo sapiens)	1 to 10 µM

# map each compound to its IC50
1. CC(=O)N1CC[C@H]2CC[C@@H](C(=O)N3C[C@@H](C#N)[C@](C)(c4ccccc4)C3)N2C(=O)[C@@H](NC(=O)c2cc3cc(C(F)(F)P(=O)(O)O)ccc3s2)C1 (relative stereo)
2. CC(=O)N1CC[C@H]2CC[C@@H](C(=O)N3CC[C@@H](C(=O)N4CCCCC4)C3)N2C(=O)[C@@H](NC(=O)c2cc3cc(C(F)(F)P(=O)(O)O)ccc3s2)C1
3. CCCS(=O)(=O)N1CC[C@H]2CC[C@@H](C(=O)N3CCOCC3)N2C(=O)[C@@H](NC(=O)c2ccc3ccc(C(F)P(=O)(O)O)cc3c2)C1 (some centres unmarked)
4. CC(=O)N1CC[C@H]2CC[C@@H](C(=O)N(C)c3ccc(C(C)(C)C)cc3)N2C(=O)[C@@H](NC(=O)c2cc3cc(C(F)(F)P(=O)(O)O)ccc3s2)C1
5. Cc1ccc2onc(C(=O)N3CC[C@H]4CC[C@@H](C(=O)N5CC6CCC(C5)O6)N4C(=O)[C@@H](NC(=O)c4ccc5ccc([C@H](F)P(=O)(O)O)cc5c4)C3)c2c1

1: 1 to 10 µM; 2: 1 to 10 µM; 3: > 10 µM; 4: 1 to 10 µM; 5: > 10 µM

Could I get IC50 for every one of these entries?
1. CNC(=O)[C@@H]1CC[C@@H]2CCN(Cc3ccn4ccnc4c3)C[C@H](NC(=O)c3cc4cc(C(F)(F)P(=O)(O)O)ccc4s3)C(=O)N21
2. COc1ccccc1C1CN(C(=O)[C@@H]2CC[C@@H]3CCN(C(C)=O)C[C@H](NC(=O)c4cc5cc(C(F)(F)P(=O)(O)O)ccc5s4)C(=O)N32)C[C@@H]1C#N (relative stereo)

1. ≤ 0.1 µM
2. 1 to 10 µM

Requested read-out: IC50. Entry: `CC(=O)N1CC[C@H]2CC[C@@H](C(=O)N(C)c3ccccc3)N2C(=O)[C@@H](NC(=O)c2ccc3ccc(CP(=O)(O)O)cc3c2)C1`
> 10 µM

====

Tested on: pY641-STAT6 in Peripheral Blood Mononuclear Cells (PBMC)
TEST_NAME: MSD-pSTAT-PBMC Assay (pSTAT6, IL-4 stimulated)
Type: cell-based, Human
COND: Homo sapiens, compound 3 hrs, then 1 ng/mL IL-4 for 10 min
VALUE_KIND: IC50

COMPOUND	IC50
CCCC(=O)SCCOP(=O)(OCOC(=O)OC(C)C)C(F)(F)c1ccc2ccc(C(=O)N[C@H]3CCN(CC(F)F)C[C@H]4CC[C@@H](C(=O)N5CC(c6cc[nH]c(=O)c6)CC56CC6)N4C3=O)cc2c1 (stereo partly shown)	≤ 100 nM
CC(=O)N1CC[C@H]2CC[C@@H](C(=O)N3C[C@@H](C#N)[C@H](c4cc[nH]c(=O)c4)C3)N2C(=O)[C@@H](NC(=O)c2ccc3ccc(C(F)(F)P(=O)(OCCSC(=O)CC(C)C)OCCSC(=O)CC(C)C)cc3c2)C1 (single isomer, unassigned)	1000 to 3000 nM
Cc1ccc2onc(C(=O)N3CC[C@H]4CC[C@@H](C(=O)N5C[C@H](c6ccn(C)c(=O)c6)CC56CC6)N4C(=O)[C@@H](NC(=O)c4ccc5ccc(C(F)(F)P(=O)(OCCSC(=O)C(C)(C)C)OCCSC(=O)C(C)(C)C)cc5c4)C3)c2c1	≤ 100 nM

Field: next compound
Which value of IC50 has been reported for `CC(=O)N1CC[C@H]2CC[C@@H](C(=O)Nc3ccc(S(C)(=O)=O)cc3)N2C(=O)[C@@H](NC(=O)c2cc3cc(C(F)(F)P(=O)(OCOC(=O)C(C)(C)C)OCOC(=O)C(C)(C)C)ccc3s2)C1` in the records?
100 to 1000 nM

====

ASSAY_SYSTEM: Recombinant STAT6 protein (STAT6(W123-T658)) (Homo sapiens)
Construct: Recombinant STAT6 protein (STAT6(W123-T658))
Sequence (P42226 123-658): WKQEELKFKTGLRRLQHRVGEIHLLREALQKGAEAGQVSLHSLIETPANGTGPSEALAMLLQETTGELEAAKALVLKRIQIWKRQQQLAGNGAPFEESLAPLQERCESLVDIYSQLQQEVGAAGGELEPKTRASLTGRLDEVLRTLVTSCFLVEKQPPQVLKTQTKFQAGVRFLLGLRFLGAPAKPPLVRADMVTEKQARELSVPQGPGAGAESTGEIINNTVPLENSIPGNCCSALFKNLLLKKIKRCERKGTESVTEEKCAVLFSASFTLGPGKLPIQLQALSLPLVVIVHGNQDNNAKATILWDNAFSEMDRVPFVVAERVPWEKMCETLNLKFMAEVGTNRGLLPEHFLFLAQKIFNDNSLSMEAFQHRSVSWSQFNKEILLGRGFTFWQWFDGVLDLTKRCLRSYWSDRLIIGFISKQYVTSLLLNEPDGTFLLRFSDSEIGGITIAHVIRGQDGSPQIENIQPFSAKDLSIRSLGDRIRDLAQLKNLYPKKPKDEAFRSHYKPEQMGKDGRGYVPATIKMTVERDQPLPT
TEST_NAME: STAT6 Fluorescence Polarization (FP) Assay
COND: STAT6(W123-T658) 250 nM, probe 5-FAM-ApYKPFQDLI-NH2 2 nM, 45-minute incubation
pIC50: −log10 of the molar value.
Can you tell me pIC50 for the items I'm about to list?

Consider the reported pIC50 for these compounds:
COMPOUND	ASSAY_SYSTEM	pIC50
CC(=O)N1CC[C@H]2CC[C@@H](C(=O)N3CC[C@@H](c4ccccc4)C3)N2C(=O)[C@@H](NC(=O)c2cc3cc(C(F)(F)P(=O)(O)O)ccc3s2)C1	Recombinant STAT6 protein (STAT6(W123-T658)) (Homo sapiens)	≥ 6.52
CC(=O)N1CC[C@H]2CC[C@@H](C(=O)Nc3ccc(OCCCN(C)C)cc3)N2C(=O)[C@@H](NC(=O)c2cc3cc(C(F)(F)P(=O)(O)O)ccc3s2)C1	Recombinant STAT6 protein (STAT6(W123-T658)) (Homo sapiens)	4.52 to 5.52
CC(=O)N1CC[C@H]2CC[C@@H](C(=O)Nc3ccc(-c4ccccc4)c([N+](=O)[O-])c3)N2C(=O)[C@@H](NC(=O)c2cc3cc(C(F)(F)P(=O)(O)O)ccc3s2)C1	Recombinant STAT6 protein (STAT6(W123-T658)) (Homo sapiens)	5.52 to 6.52

Hi team, please reply with pIC50 for each item in this list.
1. CC(=O)N1CC[C@H]2CC[C@@H](C(=O)N3CC(c4cc(F)cc(F)c4)[C@@H](C#N)C3)N2C(=O)[C@@H](NC(=O)c2cc3cc(C(F)(F)P(=O)(O)O)ccc3s2)C1 (relative stereo)
2. CC(=O)N1CC[C@H]2CC[C@@H](C(=O)Nc3ccn(-c4ccccc4)c(=O)c3)N2C(=O)[C@@H](NC(=O)c2cc3cc(C(F)(F)P(=O)(O)O)ccc3[nH]2)C1

1. ≥ 6.52
2. 5.52 to 6.52
